- Assay Method Text: chemical genetic growth profiling, strain panel (AID 1159580);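 note: tested at 20 µM; growth read once vehicle control cultures reached saturation at 30 °C; 1 = growth at the plate median or of vehicle wells; lower values mean less growth of the strain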
- Test Context: S. cerevisiae deletion strains, growth OD, locus YPR135W, strain CTF4
About 2,000 (36%) of roughly 5,500 compounds were called active. Another 18% or so got no clear call; they are omitted. Cut-off read from the data, not from the text of the source: active = normalized growth mostly below about 0.91 (no sharp cut-off); inconclusive = no clear call, values can overlap the other calls; inactive = mostly above about 0.92. The list shows a part of the results.
Outcome codes: active, inactive

compound=FC(F)(F)c1ccc(-n2cncn2)nc1 label_class=inactive
compound=COc1cccc(NC(=S)NCc2ccco2)c1 label_class=inactive
compound=NC(=S)Nc1cc(Cl)ccc1Cl label_class=inactive
compound=O=C1CCC(=O)N1CNc1ccccc1OC(F)(F)F label_class=inactive
compound=N#CCCNc1cc(C(F)(F)F)cc(C(F)(F)F)c1 label_class=inactive
compound=CC1=CC(C)(C)NC(=S)N1 label_class=inactive
compound=NNC(=S)Nc1cc(C(F)(F)F)ccc1Cl label_class=active
compound=COc1ccc(-c2c(C(=O)O)sc(SC)c2C#N)cc1 label_class=inactive
compound=CC(=O)NN(C)c1ccc(C(F)(F)F)cc1[N+](=O)[O-] label_class=inactive
compound=COc1ccc(/C(C)=N\NC2=NCCCN2)cc1 label_class=inactive
compound=COC(=O)c1csc2c(C(F)(F)F)cc(N3CCN(S(=O)(=O)c4ccc(C)cc4)CC3)nc12 label_class=inactive
compound=CC(=O)CC(C)=Nc1ccc(C(F)(F)F)cc1 label_class=inactive
compound=CC(C)(C)c1ccc(C(=O)N/N=C\c2cc(Cl)cc(Cl)c2O)cc1 label_class=inactive
compound=COc1cc(Cl)c(Cl)cc1Cl label_class=inactive
compound="O=C(NC(c1ccccc1)C(N=Cc1ccccc1)c1ccccc1)c1ccccc1 (stereo unspecified)" label_class=inactive
compound=N#C/C(=N/Nc1ccc(C(F)(F)F)cc1)C(=O)C1CC1 label_class=inactive
compound=O=C(c1ccc(Cl)cc1)N1CCN(c2ccc(C(F)(F)F)cn2)CC1 label_class=inactive
compound=O=[N+]([O-])c1cc(C(F)(F)F)ccc1NCCCn1ccnc1 label_class=inactive
compound="O=[N+]([O-])c1ccc(C2N(Cc3ccccc3)CCC3CCCCN32)cc1 (stereo unspecified)" label_class=inactive
compound=O=C(O)C12CC3CC(CC(Br)(C3)C1)C2 label_class=inactive
compound=CCOC(=O)c1c(Nc2ccccc2)sc([N+](=O)[O-])c1N label_class=inactive

###

- Assay Method Text: chemical genetic growth profiling, strain panel (AID 1159580);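 note: tested at 20 µM; growth read once vehicle control cultures reached saturation at 30 °C; 1 = growth at the plate median or of vehicle wells; lower values mean less growth of the strain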
- Test Context: S. cerevisiae deletion strains, growth OD, locus YEL003W, strain gim4
About 2,000 (36%) of roughly 5,500 compounds were called active. About 18% were inconclusive and are not listed. Cut-off read from the data, not from the text of the source: active = normalized growth mostly below about 0.91 (no sharp cut-off); inconclusive = no clear call, values can overlap the other calls; inactive = mostly above about 0.92. The list shows a part of the results.
Classes used: t for active, f for inactive

compound=N#Cc1ccc2c(c1)N(CCCN1CCC(O)CC1)c1ccccc1S2 label_class=f
compound="C[C@]12C=CC(=O)C=C1CCC1C2CC[C@]2(C)C(=O)CCC12 (stereo not given in full)" label_class=f
compound=OCCN1CCN(CCCN2c3ccccc3Sc3ccc(Cl)cc32)CC1 label_class=f
compound="C=C1CC2C(CCC3(C)C(=O)CCC23)C2(C)C=CC(=O)C=C12 (stereo not given)" label_class=t
compound="C[C@]12C=CC(=O)C=C1CCC1C2C(=O)C[C@@]2(C)C1CC[C@]2(O)C(=O)CO (stereo not given in full)" label_class=f

###

Each record here notes measured normalized growth.
- Assay Method Text: chemical genetic growth profiling, strain panel (AID 1159580);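 note: tested at 20 µM; growth read once vehicle control cultures reached saturation at 30 °C; 1 = growth at the plate median or of vehicle wells; lower values mean less growth of the strain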
- Test Context: S. cerevisiae deletion strains, growth OD, locus YNL233W, strain BNI4, stronger effect = lower value
Among all 5,500 compounds or so, about 2,000 (36%) were called active. Roughly 18% stayed inconclusive and do not appear here. The list shows a part of the results.
Measured Attribute: normalized growth

compound=CC1(C)C[C@@H]2C(=O)CC[C@H]3O[C@]3(C)CC[C@H]21 measured_attribute="normalized growth" observed=1.02
compound=CCCCCN=C(N)N/N=C\c1c[nH]c2ccc(OC)cc12 measured_attribute="normalized growth" observed=0.985
compound="CCC(=O)O[C@H]1CCC2C3CCc4cc(O)ccc4C3CC[C@@]21C (some centres undefined)" measured_attribute="normalized growth" observed=0.784
compound=Cn1cnc([N+](=O)[O-])c1Sc1ncnc2nc[nH]c12 measured_attribute="normalized growth" observed=1
compound=Cn1c([N+](=O)[O-])cnc1COC(N)=O measured_attribute="normalized growth" observed=1.01
compound=Cc1cc(O)c2c(c1O)C(=O)c1c(O)cc(C)c(O)c1C2=O measured_attribute="normalized growth" observed=0.982
compound=CC(C)=CCc1c(O)cc2occ(-c3ccc4c(c3)OCO4)c(=O)c2c1O measured_attribute="normalized growth" observed=0.971
compound=O=C1c2ccc(O)c(O)c2C(=O)c2c(O)ccc(O)c21 measured_attribute="normalized growth" observed=1.01
compound="C[C@]12CCC3C(CC[C@H]4CC(=O)CC[C@]34C)C1CCC2=O (some centres undefined)" measured_attribute="normalized growth" observed=0.902
compound=C[C@H]1C(=O)O[C@@H]2CCN3CC=C(COC(=O)[C@](C)(O)[C@]1(C)O)[C@H]23 measured_attribute="normalized growth" observed=0.995
compound="CC(=O)OC1CCC2C3CCc4cc(O)ccc4C3CCC12C (centres undefined)" measured_attribute="normalized growth" observed=0.806
compound="CC1=C2CCC3C(CC[C@]4(C)C(=O)CCC34)[C@@]2(C)CCC1=O (some centres undefined)" measured_attribute="normalized growth" observed=0.962
compound=O=c1[nH]cnc2nc[nH]c12 measured_attribute="normalized growth" observed=0.999
compound=CCN(CC)CCNC(=O)COc1ccc(OC)cc1 measured_attribute="normalized growth" observed=1.01
compound=COc1cc(O)c(C)c(O)c1 measured_attribute="normalized growth" observed=1.01
compound=c1ccc2c(c1)[nH]c1cnccc12 measured_attribute="normalized growth" observed=0.984
compound=CCCc1nc(C(C)(C)O)c(C(=O)OCc2oc(=O)oc2C)n1Cc1ccc(-c2ccccc2-c2nn[nH]n2)cc1 measured_attribute="normalized growth" observed=0.992
compound=CC1(C)S[C@@H]2[C@H](NC(=O)COc3ccccc3)C(=O)N2[C@H]1C(=O)O measured_attribute="normalized growth" observed=1.01
compound=Cc1ncc([N+](=O)[O-])n1CCO measured_attribute="normalized growth" observed=1.02
compound="C[C@]12CCC3C(CC[C@H]4C[C@@H](Cl)CC[C@]34C)C1CCC2=O (some centres undefined)" measured_attribute="normalized growth" observed=0.969
compound=O=C(O)c1cc2cc(Cl)ccc2[nH]1 measured_attribute="normalized growth" observed=1.01
compound=COc1cc2ccc(=O)oc2c2ccoc12 measured_attribute="normalized growth" observed=0.982
compound="CCOc1nc2cccc(C(=O)OC(C)OC(=O)OC3CCCCC3)c2n1Cc1ccc(-c2ccccc2-c2nn[nH]n2)cc1 (centres undefined)" measured_attribute="normalized growth" observed=0.999
compound=C=C(C)c1cc2cc(C(C)=O)c(O)cc2o1 measured_attribute="normalized growth" observed=0.952

###

As shown below, each of these molecules has a reported normalized growth value.
- Assay Method Text: chemical genetic growth profiling, strain panel (AID 1159580);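 note: tested at 20 µM; growth read once vehicle control cultures reached saturation at 30 °C; 1 = growth at the plate median or of vehicle wells; lower values mean less growth of the strain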
- Test Context: S. cerevisiae deletion strains, growth OD, locus YOR083W, strain WHI5, stronger effect = lower value
Hit rate of the full screen: of about 5,500 compounds, about 2,000 (36%) were called active. About 18% were inconclusive and are not listed. The list shows a part of the results.
Measured Attribute: normalized growth

molecule="CC(=O)OC1CCC2C3CCc4cc(O)ccc4C3CCC12C (stereo not drawn)" observed=0.904
molecule=COc1cc(O)c(C(C)=O)c(OC)c1 observed=0.965
molecule=Cn1c(=O)[nH]c(=O)c2[nH]cnc21 observed=0.933
molecule=Fc1ccc(C(c2ccc(F)cc2)N2CCN(C/C=C/c3ccccc3)CC2)cc1 observed=0.36
molecule="CCCCC(=O)O[C@H]1CCC2C3CCc4cc(O)ccc4C3CC[C@@]21C (stereo partly drawn)" observed=1
molecule=N#C/C(=C\c1ccc(O)cc1)C(=O)O observed=0.978
molecule="C[C@]12CCC3c4ccc(O)cc4CCC3C1CC[C@@H]2OC(=O)CCC1CCCC1 (stereo partly drawn)" observed=1.05
molecule=O=C1c2ccccc2C(=O)c2c(O)c(O)cc(O)c21 observed=0.399
molecule="CC(=O)Oc1ccc2c(c1)CCC1C2CC[C@@]2(C)C1CC[C@@H]2OC(C)=O (stereo partly drawn)" observed=0.936
molecule=COc1ccc2c(=O)c(CC(=O)O)coc2c1 observed=1.04
molecule=COc1ccc2[nH]cc(CCNC(C)=O)c2c1 observed=0.98
molecule="CCC(=O)O[C@H]1CCC2C3CCc4cc(O)ccc4C3CC[C@@]21C (stereo partly drawn)" observed=0.976
molecule="CC(=O)O[C@H]1CC2CCC3C(CC[C@@]4(C)C3C[C@H]([N+]3(C)CCCCC3)[C@@H]4OC(C)=O)[C@@]2(C)C[C@@H]1[N+]1(C)CCCCC1 (stereo partly drawn)" observed=1.02
molecule="CC(=O)OC1CCC23C(=O)OC45CCC(C6=CC(=O)OC6)C4(C)CCC2C5CCC3(O)C1 (stereo not drawn)" observed=1.06
molecule=CN1CCN(C(c2ccccc2)c2ccccc2)CC1 observed=0.948
molecule=COc1c(O)cc(O)cc1O observed=1.01
molecule=O=C(O)CCCN1C(=O)c2cccc3cccc(c23)C1=O observed=0.995
molecule=C[C@H]1C(=O)O[C@@H]2CCN3CC=C(COC(=O)[C@](C)(O)[C@]1(C)O)[C@H]23 observed=1
molecule=Cn1c([N+](=O)[O-])cnc1COC(N)=O observed=1.03
molecule=Cc1cc(O)c2c(c1O)C(=O)c1c(O)cc(C)c(O)c1C2=O observed=0.964
molecule="CC(=O)Oc1ccc2c(c1)CCC1C2CCC2(C)C1CC(OC(C)=O)C2OC(C)=O (stereo not drawn)" observed=0.952
molecule="CSCCC(NC=O)C(=O)NC(CC(C)C)C(=O)NC(Cc1ccccc1)C(=O)O (stereo not drawn)" observed=1
molecule="CCCC(=O)Nc1ncnc2c1ncn2C1O[C@@H]2COP(=O)(O)O[C@H]2[C@H]1OC(=O)CCC (stereo partly drawn)" observed=0.986
